Tested on: MALME-3M melanoma
Assay: NCI tumour cell line growth inhibition, 48 h
Reported TGI values for the following molecules.
Express your answer in µM, writing the number without its unit.

molecule | TGI (µM)
CCCCCCCCCCCC[S+](C)C | 22.4
O=C1c2cc(-c3ccccc3)cnc2S(=O)(=O)N1c1ccc(Br)cc1 | 96.9
C[n+]1c(/C=C/c2c(O)ccc3ccccc23)ccc2ccccc21 | 12.7
C=CCCCCC1CCC2CCC(CCCCC=C)N12 (stereo unspecified) | 31.8
Cc1c2cc[n+](C)c(C)c2cc2c1[nH]c1ccccc12 | 14.2
CN1CCN(c2ccc(Nc3cc(-c4cccc(-n5ccc6cc(C7CC7)cc(F)c6c5=O)c4CO)cn(C)c3=O)nc2)CC1 | 4.79
CC(=O)ON1CCCC(P(=O)(OCCSC(=O)C(C)(C)C)OCCSC(=O)C(C)(C)C)C1=O (stereo unspecified) | 9.05
CC(C)(/C=C(\C#N)C(=O)N1CCC[C@@H](n2nc(-c3ccc(Oc4ccccc4)cc3F)c3c(N)ncnc32)C1)N1CCN(C2COC2)CC1 | 19.5
COC(=O)[C@]12CC[C@@H](C)[C@H](C)[C@@H]1C1=CC[C@@H]3[C@@]4(C)C[C@@H](O)[C@H](O)[C@@](C)(CO)C4=CC[C@@]3(C)[C@]1(C)CC2 | 31.3
CC1=CCC([C@@](C)(O)CCCC(C)(C)N=C=S)CC1 (stereo partly specified) | 28.3

Kindly consider the entry below.
Entry CCN1CCN(c2cc(C)c3cc(NC(=O)c4ccc(OC)c(OC)c4)ccc3n2)CC1 — recorded TGI = 31.3
